Numbers sourced from the supplement of paper PMC10981050.

system: MOLM14; assay: cell viability relative to vehicle control; higher = less cytotoxic; conditions: 10 µM; SRSF2 genotype: SRSF2 wt/wt;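 further: after 48 h exposure read by CellTiter-Glo luminescence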
measurement.name: cell viability (%)
All answers are understood in %, so give the number only.

1. O=Cc1ccc(O)c(O)c1 [3,4-Dihydroxybenzaldehyde] : 99.4
2. COc1ccc(CCCOC(Cn2ccnc2)c2ccc(OC)cc2)cc1 (stereo not given) : 4.26

Item: CCN=C1N[C@@H]2[C@@H](O)[C@H](O)[C@@H](CO)O[C@@H]2S1 | cell viability: 99.8

Value of cell viability reported for the compound CC(C)(C)C(=O)Nc1ccc2c(c1)C(=O)C(=O)c1ccccc1-2 is 39.2

// sample O=C(NCc1ccncc1)C12CC3CC(C1)CC(c1ccc(Cl)cc1)(C3)C2 , its cell viability was 57.4
